System: U-2932
Protocol text: growth inhibition by drug plus 177Lu-lilotomab satetraxetan (1 - RLU/untreated control) (fraction); higher = stronger inhibition
Condition: 10 nM; time (day): 3; 177Lu-lilotomab satetraxetan 1 ug/ml
Outcome: satisfied for growth inhibition by drug plus 177Lu-lilotomab satetraxetan of at least 0.01; not satisfied for anything lower.

- Molecule: "C=C1C[C@@H]2[C@H](CC[C@]3(C)C(=O)CC[C@@H]23)[C@@]2(C)C=CC(=O)C=C12 [Exemestane]"
  Class: "satisfied"
- Molecule: "O=P1(N(CCCl)CCCl)NCCCO1 (stereo not drawn) [Cyclophosphamide monohydrate]"
  Class: "not satisfied"
- Molecule: "O=C(O)c1nn(Cc2ccc(Cl)cc2Cl)c2ccccc12 [Lonidamine]"
  Class: "satisfied"
- Molecule: "CN(C)CCN(C)CCc1ccc(Cl)c(Cl)c1"
  Class: "not satisfied"
- Molecule: "Cc1cc2c(C(C)C)c(O)c(O)c(C=O)c2c(O)c1-c1c(C)cc2c(C(C)C)c(O)c(O)c(C=O)c2c1O [Gossypol]"
  Class: "not satisfied"

Enquiry: Does CC(O)(CS(=O)(=O)c1ccc(F)cc1)C(=O)Nc1ccc(C#N)c(C(F)(F)F)c1 (stereo not drawn) [Bicalutamide (Casodex)] have a reported growth inhibition by drug plus 177Lu-lilotomab satetraxetan of at least 0.01?
Return: satisfied

Enquiry: Could you do the same for N.N.[Cl][Pt][Cl] [Cisplatin] , please?
Return: not satisfied

Enquiry: Could you do the same for `O=C(Oc1ccc([N+](=O)[O-])cc1)N1CCC(C(O)(c2ccc3c(c2)OCO3)c2ccc3c(c2)OCO3)CC1` , please?
Return: not satisfied
